Target: D(3) dopamine receptor (Rattus norvegicus)
Sequence (P19020 whole entry): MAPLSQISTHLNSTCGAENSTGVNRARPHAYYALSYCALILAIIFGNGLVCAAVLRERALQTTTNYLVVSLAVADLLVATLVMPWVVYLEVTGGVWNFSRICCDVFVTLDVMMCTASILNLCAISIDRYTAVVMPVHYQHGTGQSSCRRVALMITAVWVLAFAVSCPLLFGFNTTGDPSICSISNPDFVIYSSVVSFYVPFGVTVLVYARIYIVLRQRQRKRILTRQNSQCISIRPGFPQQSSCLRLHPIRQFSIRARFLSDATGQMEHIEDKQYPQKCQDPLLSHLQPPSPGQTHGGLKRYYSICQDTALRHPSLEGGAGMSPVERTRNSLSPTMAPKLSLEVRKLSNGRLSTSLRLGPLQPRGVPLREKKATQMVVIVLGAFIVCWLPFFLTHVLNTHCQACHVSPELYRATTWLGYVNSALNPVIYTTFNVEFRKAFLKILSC
measure: Ki (nM)

> print(dat)
                                   compound  unit.of.measure  endpoint.result
1  CCCN(CCC)C1CCc2cccc(O)c2C1 (stereo unspecified)               nM              248

Cited source: ChEMBL document CHEMBL1126949
